# assayTarget: Botulinum neurotoxin mosaic BoNT/DC (Clostridium botulinum)
# measurementProtocol: KinExA, IgG
Listed below: pKd values for each entry.
The value called pKd is obtained by taking minus log10 of the concentration in mol/L.

Previously resolved entries follow.
[[record]]
binder = "4C10.17 IgG (antibody, V domains shown) VH: QVQLVQSGGGVVQPGRSLRLSCGASRFTFSGFDMHWVRQAPGKGLEWVARISHDGSMADYADSLRGRFTISRDNSKNTLYLQMNSLRVEDTALYYCAKDRWRSGSYPAFEIWGQGTMVTVSS VL: EIVLTQSPSFLSAFVGDRITITCRASQGISNRLAWYQQKPGKAPNLLIHPASSLQSGVPSRFSGSGSGTDFTLTISSLQPEDFATYYCQQANSFPLTFGGGTKVEIKR"
measurementname = "pKd"
numericvalue = 9.12

[[record]]
binder = "4C10.20 IgG (antibody, V domains shown) VH: QVQLVQSGGGVVQPGRSLRLSCGASRFTFSGFDMHWVRQAPGKGLEWVARISHDGSMADYADSLRGRFTISRDNSKNTLYLQMNSLRVEDTALYYCAKDPWRSGSYPAFEIWGQGTMVTVSS VL: EIVLTQSPSFLSAFIGDRITITCRASQGIGNRLAWYQQKPGKAPNLLIYPASTLQSGVPSRFSGSGSGTDFTLTISSLQPEDFATYYCQQANSFPLTFGGGTKVEIKR"
measurementname = "pKd"
numericvalue = 10.78


// lookup pKd for 4C10.8 IgG (antibody, V domains shown) VH: QVQLVQSGGGVVQPGRSLRLSCGASRFTFSGFDMHWVRQAPGKGLEWVARISHDGSMADYADSLRGRFTISRDNSKNTLYLQMNSLRVEDTALYYCAKDPWRSGSYPAFEIWGQGTMVTVSS VL: EIVLTQSPSFLSAFIGDRITITCRASQGISNRLAWYQQKPGKAPNLLIYPASTLQSGVPSRFSGSGSGTDFTLTISSLQPEDFATYYCQQANSFPLTFGGGTKVEIKR 10.25
